Molecular target: Beta-glucosidase
Assay: Glycosidase specificity panel (Example 4)
measured-parameter: IC50 (µM)
// note: answer is a bare numeric in µM

Task: Request the reported IC50 associated with CCCCC[C@H]1NC[C@@H](O)[C@@H](O)[C@H]1CO
Result: 60

---

Biological target: Beta-galactosidase (Homo sapiens, UniProt P16278)
Construct: endogenous in cells; host or cells: human peripheral blood mononuclear cells (lysate)
Sequence (P16278 29-677): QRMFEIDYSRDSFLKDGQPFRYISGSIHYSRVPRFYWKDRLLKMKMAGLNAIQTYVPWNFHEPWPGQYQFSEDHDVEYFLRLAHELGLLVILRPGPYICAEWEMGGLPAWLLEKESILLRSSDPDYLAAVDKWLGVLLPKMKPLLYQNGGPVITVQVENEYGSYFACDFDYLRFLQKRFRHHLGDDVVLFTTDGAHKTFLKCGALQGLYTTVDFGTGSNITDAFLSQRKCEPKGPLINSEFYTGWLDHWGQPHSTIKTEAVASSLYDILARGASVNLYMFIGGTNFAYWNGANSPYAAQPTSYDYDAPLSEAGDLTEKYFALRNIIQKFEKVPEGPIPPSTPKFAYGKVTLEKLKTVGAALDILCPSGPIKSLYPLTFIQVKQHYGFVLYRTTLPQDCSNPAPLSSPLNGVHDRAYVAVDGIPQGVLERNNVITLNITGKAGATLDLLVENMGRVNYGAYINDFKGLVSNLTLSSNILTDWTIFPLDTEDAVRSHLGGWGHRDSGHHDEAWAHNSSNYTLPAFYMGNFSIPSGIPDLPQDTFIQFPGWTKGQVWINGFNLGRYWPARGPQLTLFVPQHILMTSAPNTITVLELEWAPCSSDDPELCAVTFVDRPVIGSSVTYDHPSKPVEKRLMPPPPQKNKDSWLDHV
Assay: Inhibition of wild type beta-galactosidase activity in human peripheral blood mononuclear cell lysate (Example 3)
Type: biochemical
measured-parameter: pIC50
# pIC50 is unitless: minus log10 of the molar concentration; print number only

Task: Given OC[C@H]1CNC[C@@H](O)[C@H]1O [4-epi-isofagomine] , state its recorded pIC50.
Result: 6.10
